# STUDY_TARGET: rabbit serum PON3 (Oryctolagus cuniculus)
# Construct: from tissue; host or cells: rabbit serum
# TEST_SUMMARY: Hydrolytic activity of purified rabbit serum PON3 with paraoxon, aromatic esters and lactones
# Assay type: biochemical
# RUN_CONDITIONS: ratio of hydrolysis rates of PON1 and PON3
Reported PON1/PON3 Ratio by item:
RECORDED_ENDPOINT: PON1/PON3 Ratio

compound="CCCCC1OC(=O)CC1C (stereo not drawn) [β-methyl-γ-octalactone]" endpoint_value=12
compound="CC1=CCC(=O)O1 [α-Angelica lactone]" endpoint_value=52
compound="CCCCCCCC1CCC(=O)O1 (stereo not drawn) [γ-Undecalactone]" endpoint_value=2
compound="O=C1Cc2ccccc2O1 [2-Coumaronone]" endpoint_value=4.0
compound="CCCCCCCC1CCCC(=O)O1 (stereo not drawn) [δ-Dodecalactone]" endpoint_value=1.8
compound="CC1CCCC(=O)O1 (stereo not drawn) [δ-Hexalactone]" endpoint_value=58
compound="C=C1CCC(=O)O1 [γ-methylene-γ-butyrolactone]" endpoint_value=52
compound="O=C1CCC(c2ccccc2)O1 (stereo not drawn) [γ-phenyl-γ-butyrolactone]" endpoint_value=10
compound="CC1CCC(=O)O1 (stereo not drawn) [γ-Valerolactone]" endpoint_value=26
compound="CCCCC1CCC(=O)O1 (stereo not drawn) [γ-Octalactone]" endpoint_value=3.6
compound="CC(=O)Oc1ccccc1 [Phenyl Acetate]" endpoint_value=769
compound="CC(=O)Oc1ccc2ccccc2c1 [β-Naphtyl Acetate]" endpoint_value=30

* * *

# STUDY_TARGET: rabbit serum PON1 (Oryctolagus cuniculus)
# Construct: PON 1 was purified further by pooling the fractions with highest arylesterase activity from a second DEAE column; from tissue; host or cells: rabbit serum
# Sequence (P27170 whole entry Y185T): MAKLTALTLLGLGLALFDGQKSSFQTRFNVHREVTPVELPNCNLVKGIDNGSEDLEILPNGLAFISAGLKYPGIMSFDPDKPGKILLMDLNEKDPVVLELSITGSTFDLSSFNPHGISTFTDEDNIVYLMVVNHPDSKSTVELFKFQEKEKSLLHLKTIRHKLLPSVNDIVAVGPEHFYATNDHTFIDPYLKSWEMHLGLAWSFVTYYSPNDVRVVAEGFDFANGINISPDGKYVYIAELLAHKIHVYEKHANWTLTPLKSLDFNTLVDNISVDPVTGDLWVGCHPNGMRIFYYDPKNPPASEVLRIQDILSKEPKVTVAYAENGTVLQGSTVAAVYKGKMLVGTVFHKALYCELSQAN
# TEST_SUMMARY: Hydrolytic activity of purified rabbit serum PON1 with paraoxon, aromatic esters and lactones
# Format: biochemical
# RUN_CONDITIONS: 25° C.
# Source text: […] Hydrolysis of aromatic lactones was monitored by the increase in UV absorbance at 270 nm (dihydrocoumarin), 274 nm (2-coumaranone), and 290 nm (homogentisic acid lactone). […] The hydrolysis of other lactones was followed by a calorimetric assay with phenol red (Billecke, et al., Chem Biol Interact, 119-120:251-256, [1999]). […] The rate of acid production was followed by monitoring the increase in absorbance at 422 nm as the color changed from red to yellow. […]
Threshold 100 µmol/min/mg: PON1 (rate of hydrolysis of substrate) strictly smaller gives y, otherwise n.

compound="CCCC1CCC(=O)O1 (stereo not drawn) [γ-Heptalactone]" study_target="rabbit serum PON1 (Oryctolagus cuniculus)" class=n
compound="CC1CCC(=O)O1 (stereo not drawn) [γ-Valerolactone]" study_target="rabbit serum PON1 (Oryctolagus cuniculus)" class=y
compound="CCCCC1CCC(=O)O1 (stereo not drawn) [γ-Octalactone]" study_target="rabbit serum PON1 (Oryctolagus cuniculus)" class=n
compound="CCCCCC1CCC(=O)O1 (stereo not drawn) [γ-Nonalactone]" study_target="rabbit serum PON1 (Oryctolagus cuniculus)" class=y
compound="CC(=O)Oc1ccc2ccccc2c1 [β-Naphtyl Acetate]" study_target="rabbit serum PON1 (Oryctolagus cuniculus)" class=n
compound="CCOP(=O)(OCC)Oc1ccc([N+](=O)[O-])cc1 [Paraoxon]" study_target="rabbit serum PON1 (Oryctolagus cuniculus)" class=y

* * *

# STUDY_TARGET: rabbit serum PON3 (Oryctolagus cuniculus, UniProt Q9BGN0)
# Construct: from tissue; host or cells: rabbit serum
# Sequence (Q9BGN0 2-354 limits assumed): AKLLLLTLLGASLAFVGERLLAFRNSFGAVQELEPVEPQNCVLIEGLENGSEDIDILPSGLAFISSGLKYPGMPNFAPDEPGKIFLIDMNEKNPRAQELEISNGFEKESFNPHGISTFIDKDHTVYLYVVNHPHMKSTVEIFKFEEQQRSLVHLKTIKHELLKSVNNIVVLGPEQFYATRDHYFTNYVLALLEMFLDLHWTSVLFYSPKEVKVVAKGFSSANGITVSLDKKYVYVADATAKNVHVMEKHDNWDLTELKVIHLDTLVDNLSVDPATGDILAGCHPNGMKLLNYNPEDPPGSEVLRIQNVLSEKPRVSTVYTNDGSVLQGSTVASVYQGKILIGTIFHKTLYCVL
# TEST_SUMMARY: Hydrolytic activity of purified rabbit serum PON3 with paraoxon, aromatic esters and lactones
# Format: biochemical
# RUN_CONDITIONS: ratio of hydrolysis rates of PON1 and PON3
RECORDED_ENDPOINT: PON1/PON3 Ratio

compound="CCCC1CCC(=O)O1 (stereo not shown)" recorded_endpoint="PON1/PON3 Ratio" endpoint_value=12
compound="CCCCCCC1CCC(=O)O1 (stereo not shown)" recorded_endpoint="PON1/PON3 Ratio" endpoint_value=1.8
compound="O=C1Oc2ccccc2C1Br (stereo not shown)" recorded_endpoint="PON1/PON3 Ratio" endpoint_value=97
compound="CCCCCC1CCCC(=O)O1 (stereo not shown)" recorded_endpoint="PON1/PON3 Ratio" endpoint_value=1.8
compound="CCCCCC1CCC(=O)O1 (stereo not shown)" recorded_endpoint="PON1/PON3 Ratio" endpoint_value=1.3
compound="CCCCC1CCCC(=O)O1 (stereo not shown)" recorded_endpoint="PON1/PON3 Ratio" endpoint_value=3.4
compound=CCOP(=O)(OCC)Oc1ccc([N+](=O)[O-])cc1 recorded_endpoint="PON1/PON3 Ratio" endpoint_value=638
